# Test system: HT-29
# experiment: Viability assay with HT-29
# Assay type: cell-based
# experimental.setup: HT-29, viability assay per Example 57
Where a name gives a salt, the structure may show the parent alone.
compounds and their reported EC50
measurement.type: EC50

[[record]]
compound = "NCCCn1cc(-c2ccc(OC(F)(F)F)cc2)c2cc(OC3CCN(Cc4ccccc4Cl)CC3)ccc21 [C242; HCl]"
experimental_result = "5 to 10 µM"

[[record]]
compound = "NCCc1cccc(-n2cc(-c3ccc(OC(F)(F)F)cc3)c3cc(CN4CCN(Cc5ccccc5Cl)CC4)ccc32)c1 [C235; Formic Acid]"
experimental_result = "≤ 5 µM"

[[record]]
compound = "CCC1CCN(Cc2ccc3c(c2)c(-c2ccc(OC)cc2CN)cn3CCCN)CC1 [C255; HCl]"
experimental_result = "5 to 10 µM"

[[record]]
compound = "CC(C)(c1ccccc1Cl)N1CCN(Cc2ccc3c(c2)c(-c2ccc(OC(F)(F)F)cc2)cn3CCCN)CC1 [C166; Formic Acid]"
experimental_result = "≤ 5 µM"

[[record]]
compound = "NCCCn1cc(-c2ccc(OC(F)(F)F)cc2N)c2cc(CN3CCN(Cc4ccccc4Cl)CC3)ccc21 [C239; Formic Acid]"
experimental_result = "≤ 5 µM"

[[record]]
compound = "COc1ccc(-c2cn(C(C)(C)CCN)c3ccc(CN4CCN(Cc5ccccc5Cl)CC4)cc23)cc1 [C206; HCl]"
experimental_result = "≤ 5 µM"

[[record]]
compound = "COc1ccc(-c2cn(CCCN)c3ccc(CN4CCN(Cc5ccccc5Cl)CC4)cc23)c(CN(C)C)c1 [C284; HCl]"
experimental_result = "≤ 5 µM"


----------
# Test system: HT-29
# experiment: Viability assay with HT-29
# Type: cell-based
# experimental.setup: HT-29, viability assay per Example 57
Counter-ions that a name gives are not always drawn.
measurement.type: EC50

[[record]]
molecule = "NCCCn1cc(-c2ccc(OC(F)(F)F)cc2)c2cc(CN3CCC(Nc4ccccc4Cl)CC3)ccc21"
measurement_type = "EC50"
experimental_result = "≤ 5 µM"

[[record]]
molecule = "NCCCn1cc(-c2ccc(OC(F)(F)F)cc2CN)c2cc(CN3CCSCC3)ccc21 [C282; HCl]"
measurement_type = "EC50"
experimental_result = "≤ 5 µM"

[[record]]
molecule = "NCCCn1cc(-c2ccc(OC(F)(F)F)cc2)c2cc(CN3CCN(Cc4ccn[nH]4)CC3)ccc21 [C187; HCl]"
measurement_type = "EC50"
experimental_result = "≤ 5 µM"

[[record]]
molecule = "NCCCn1cc(-c2ccc(OC(F)(F)F)cc2)c2cc(CN3CCSCC3)ccc21 [C293; HCl]"
measurement_type = "EC50"
experimental_result = "≤ 5 µM"

[[record]]
molecule = "FC(F)(F)Oc1ccc(-c2cn(CC3CCCNC3)c3ccc(CN4CCN(Cc5ccccc5Cl)CC4)cc23)cc1 (stereo not shown) [C230; HCl]"
measurement_type = "EC50"
experimental_result = "≤ 5 µM"

[[record]]
molecule = "NCCCn1cc(-c2ccccc2CO)c2cc(CN3CCN(Cc4ccccc4Cl)CC3)ccc21 [C181; HCl]"
measurement_type = "EC50"
experimental_result = "≤ 5 µM"

[[record]]
molecule = "NCCCn1cc(-c2ccc(CO)cc2)c2cc(CN3CCN(Cc4ccccc4Cl)CC3)ccc21"
measurement_type = "EC50"
experimental_result = "5 to 10 µM"

[[record]]
molecule = "COc1cc(OC)cc(OC2CCN(Cc3ccc4c(c3)c(-c3ccc(OC(F)(F)F)cc3CN)cn4CCCN)CC2)c1 [C281; HCl]"
measurement_type = "EC50"
experimental_result = "≤ 5 µM"

[[record]]
molecule = "NCCCn1cc(-c2cccc(CO)c2)c2cc(CN3CCN(Cc4ccccc4Cl)CC3)ccc21 [C152; HCl]"
measurement_type = "EC50"
experimental_result = "≤ 5 µM"

[[record]]
molecule = "Cc1ncc(CN2CCN(Cc3ccc4c(c3)c(-c3ccc(OC(F)(F)F)cc3)cn4CCCN)CC2)[nH]1 [C195; HCl]"
measurement_type = "EC50"
experimental_result = "5 to 10 µM"

[[record]]
molecule = "NCCCn1cc(-c2ccc(OC(F)(F)F)cc2)c2cc(CN3CCC(Nc4cccc(Cl)c4)CC3)ccc21"
measurement_type = "EC50"
experimental_result = "≤ 5 µM"

[[record]]
molecule = "COc1ccc(-n2c(=O)n(CCCN)c3ccc(CN4CCN(Cc5ccccc5Cl)CC4)cc32)cc1 [C200; HCl]"
measurement_type = "EC50"
experimental_result = "5 to 10 µM"

[[record]]
molecule = "Cc1cc(Cl)ccc1CN1CCN(Cc2ccc3c(c2)c(-c2ccc(OC(F)(F)F)cc2)cn3CCCN)CC1 [C139; HCl]"
measurement_type = "EC50"
experimental_result = "≤ 5 µM"

[[record]]
molecule = "NCCCn1cc(-c2ccc(OC(F)(F)F)cc2)c2cc(CN3CCC(Oc4ccc(Cl)cc4)CC3)ccc21 [C216; HCl]"
measurement_type = "EC50"
experimental_result = "≤ 5 µM"

[[record]]
molecule = "NCCCn1cc(-c2ccc(OC(F)(F)F)cc2)c2c(CN3CCN(Cc4ccccc4Cl)CC3)cccc21 [C183; HCl]"
measurement_type = "EC50"
experimental_result = "≤ 5 µM"

[[record]]
molecule = "NCCCn1cc(-c2cccc(C(N)=O)c2)c2cc(CN3CCN(Cc4ccccc4Cl)CC3)ccc21 [C179; HCl]"
measurement_type = "EC50"
experimental_result = "≤ 5 µM"

